- Assay method text: Solubility of rupatadine fumarate in water and in buffer solutions at different pH
- Assay type: physicochemical
- Test context: water; 25 g/L added, stirring 16 - 24 h, filtered; room temperature
Counter-ions that a name gives are not always drawn.
Observable: solubility (µg/mL)

[[record]]
molecule = "Cc1cncc(CN2CCC(=C3c4ccc(Cl)cc4CCc4cccnc43)CC2)c1 [rupatadine fumarate]"
value = 2900

